Numbers sourced from ChEMBL document CHEMBL5226302.

Assay: Oral bioavailability in rat at 2 mg/kg
Format: ADME, organism-based
Settings: in vivo
REPORTED METRIC: bioavailability
Units required after the number.

Prompt line: Bench note: what bioavailability did CC(=O)N1CCN(c2ccc(NC(=O)Cc3cnc(-c4ccnc(F)c4)c(C)c3)nc2)CC1 show?
Response line: 72%

---

Target: Poly [ADP-ribose] polymerase tankyrase-2 (Homo sapiens, UniProt Q9H2K2)
Sequence (Q9H2K2 whole entry): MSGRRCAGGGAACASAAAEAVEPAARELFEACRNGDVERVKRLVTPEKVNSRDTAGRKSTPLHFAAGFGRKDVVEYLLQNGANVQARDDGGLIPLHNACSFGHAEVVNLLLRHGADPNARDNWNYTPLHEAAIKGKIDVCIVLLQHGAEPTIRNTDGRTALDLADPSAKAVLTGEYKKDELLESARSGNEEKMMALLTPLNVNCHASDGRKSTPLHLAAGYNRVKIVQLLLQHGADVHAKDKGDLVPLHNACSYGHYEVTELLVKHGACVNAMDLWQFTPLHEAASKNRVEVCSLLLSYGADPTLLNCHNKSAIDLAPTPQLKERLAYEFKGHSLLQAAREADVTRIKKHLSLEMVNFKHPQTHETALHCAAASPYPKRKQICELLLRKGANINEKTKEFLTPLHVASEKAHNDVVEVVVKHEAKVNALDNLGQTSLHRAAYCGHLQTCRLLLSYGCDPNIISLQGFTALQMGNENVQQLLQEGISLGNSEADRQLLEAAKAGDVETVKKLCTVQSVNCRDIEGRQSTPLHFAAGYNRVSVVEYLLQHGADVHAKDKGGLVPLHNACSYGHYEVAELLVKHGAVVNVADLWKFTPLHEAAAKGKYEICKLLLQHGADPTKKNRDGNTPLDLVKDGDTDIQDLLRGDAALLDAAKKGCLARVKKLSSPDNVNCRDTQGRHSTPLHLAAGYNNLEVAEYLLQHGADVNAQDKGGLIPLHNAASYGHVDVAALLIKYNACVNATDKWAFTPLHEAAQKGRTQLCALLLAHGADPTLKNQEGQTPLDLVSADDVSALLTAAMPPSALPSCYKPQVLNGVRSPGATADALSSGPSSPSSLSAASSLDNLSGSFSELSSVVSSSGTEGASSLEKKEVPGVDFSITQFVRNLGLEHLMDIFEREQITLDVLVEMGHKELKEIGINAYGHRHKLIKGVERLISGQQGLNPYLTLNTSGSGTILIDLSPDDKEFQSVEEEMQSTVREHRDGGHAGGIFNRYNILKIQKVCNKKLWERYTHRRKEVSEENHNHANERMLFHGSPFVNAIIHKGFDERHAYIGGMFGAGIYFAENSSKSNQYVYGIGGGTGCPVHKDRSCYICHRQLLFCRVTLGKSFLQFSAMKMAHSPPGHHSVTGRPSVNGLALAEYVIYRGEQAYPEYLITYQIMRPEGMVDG
Experiment: Inhibition of TNKS2 (unknown origin)
Below, each of the molecules is paired with its reported pIC50 value.
pIC50 here is simply -log10 of the concentration when that concentration is written in mol/L.

SMILES STR: CC1(C)OC(=O)N([C@H]2CC[C@H](c3cnc(N)c(-c4ncccn4)c3)CC2)[C@H]1c1ccccc1
pIC50: 7.66

// next item, pIC50 requested
Prompt line: Provide the documented pIC50 with Poly [ADP-ribose] polymerase tankyrase-2 (Homo sapiens, UniProt Q9H2K2) as the system for COc1ccc(C2(CNC(=O)c3ccc(NC(=O)c4ccco4)cc3)CCOCC2)cc1
Response line: 6.08

---

Molecular target: Catenin beta-1/Transcription factor 7 (Homo sapiens, UniProt P35222+P36402)
Sequence (P36402 whole entry): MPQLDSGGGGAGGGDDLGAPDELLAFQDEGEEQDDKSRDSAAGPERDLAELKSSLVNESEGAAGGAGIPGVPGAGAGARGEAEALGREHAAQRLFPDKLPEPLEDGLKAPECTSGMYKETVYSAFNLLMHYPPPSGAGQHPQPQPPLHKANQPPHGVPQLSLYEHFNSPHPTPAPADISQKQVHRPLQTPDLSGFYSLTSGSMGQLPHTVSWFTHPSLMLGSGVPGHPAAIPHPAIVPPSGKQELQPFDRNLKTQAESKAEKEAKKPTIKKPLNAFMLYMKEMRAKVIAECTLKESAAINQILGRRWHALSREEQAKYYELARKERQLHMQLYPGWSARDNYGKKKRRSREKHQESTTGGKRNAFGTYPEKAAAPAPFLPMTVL
Sequence (P35222 whole entry): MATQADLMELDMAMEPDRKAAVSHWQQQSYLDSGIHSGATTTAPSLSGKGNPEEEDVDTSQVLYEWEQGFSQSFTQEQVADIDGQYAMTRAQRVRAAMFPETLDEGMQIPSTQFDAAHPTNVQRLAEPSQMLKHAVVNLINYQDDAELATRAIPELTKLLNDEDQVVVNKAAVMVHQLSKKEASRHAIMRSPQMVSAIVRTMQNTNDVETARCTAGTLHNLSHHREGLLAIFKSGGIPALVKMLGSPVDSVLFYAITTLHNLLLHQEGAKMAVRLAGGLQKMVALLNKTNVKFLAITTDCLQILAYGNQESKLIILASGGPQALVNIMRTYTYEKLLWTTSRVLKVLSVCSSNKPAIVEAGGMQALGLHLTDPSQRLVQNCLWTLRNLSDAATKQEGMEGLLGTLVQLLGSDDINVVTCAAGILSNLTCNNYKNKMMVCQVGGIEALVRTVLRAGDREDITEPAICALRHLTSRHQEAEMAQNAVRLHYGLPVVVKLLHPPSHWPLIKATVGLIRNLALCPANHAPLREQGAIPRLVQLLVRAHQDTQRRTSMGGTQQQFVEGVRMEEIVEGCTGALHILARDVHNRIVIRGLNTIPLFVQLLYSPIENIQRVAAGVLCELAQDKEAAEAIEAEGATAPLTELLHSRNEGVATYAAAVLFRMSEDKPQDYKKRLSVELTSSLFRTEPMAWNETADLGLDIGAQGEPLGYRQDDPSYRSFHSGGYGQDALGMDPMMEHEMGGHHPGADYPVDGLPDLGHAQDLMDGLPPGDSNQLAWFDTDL
Experiment: Inhibition of beta catenin/TCF (unknown origin) by immunoprecipitation method
Type: protein assay
REPORTED METRIC: pIC50
pIC50 here is simply -log10 of the concentration when that concentration is written in mol/L.

SMILES STR: COc1ccc([C@@H](C)N2CC(=O)N[C@H](C)C(=O)CN(CCc3ccccc3Oc3ccccc3)CC(=O)N(c3cc(OC)cc(OC)c3)CC(=O)N(CCCOC(C)C)CC(=O)N([C@H](C)c3ccc(OC)cc3)CC2=O)cc1
REPORTED METRIC: pIC50
QUANTITATIVE RESULT: 5.00

// next item, pIC50 requested
Prompt line: Bench note: what pIC50 did O=C1[C@H](Cc2ccc(O)cc2)N2C(=O)CCN(C(=O)NCc3ccccc3)[C@H]2CN1Cc1cccc2ccccc12 show?
Response line: 5.52

---

Test: Oral bioavailability in dog
Assay type: ADME, organism-based, Canis lupus familiaris
Details: in vivo
REPORTED METRIC: bioavailability (%)
Please give a number only; it is taken to be in %.

Prompt line: Bench note: what bioavailability did CC(=O)N1CCN(c2ccc(NC(=O)Cc3cnc(-c4ccnc(F)c4)c(C)c3)nc2)CC1 show?
Response line: 96

---

Experiment: Chemical stability of the compound at pH 7.4 measured after 24 hrs
Format: physicochemical
Details: buffer, read-out: Stability
REPORTED METRIC: remaining at 24 h (%)
Please give a number only; it is taken to be in %.

Prompt line: Bench note: what remaining at 24 h did Cc1cc(-c2ccc(OC(C)C(=O)Nc3ccc(-c4cnccn4)cn3)cc2)ccn1 (stereo unspecified) show?
Response line: 71

---

Test: Oral bioavailability in mouse at 2.5 mg/kg
Type: ADME, organism-based
Settings: in vivo
REPORTED METRIC: bioavailability (%)
Please give a number only; it is taken to be in %.

SMILES STR: C[C@H](Nc1ccc(-c2ccnn2C)nc1)C(=O)Nc1ccc(-c2cccnc2)cn1
REPORTED METRIC: bioavailability
UNIT TEXT: %
QUANTITATIVE RESULT: 100

// next item, bioavailability requested
Prompt line: Bench note: what bioavailability did O=C(CN1CCCC2=C1C(=O)N(C1CC1)C2=O)Nc1ccc(-c2cccnc2)nn1 show?
Response line: 81
